Entries and their measured T½ follow.
# Study Target: T1, soluble heterodimeric hCD3ε/δ.mFc protein (human)
# T1 construct: also called soluble human CD3; human CD3 heterodimeric protein
# T1 sequence (P07766 23-126, stated change not applied, chain 1 of 2): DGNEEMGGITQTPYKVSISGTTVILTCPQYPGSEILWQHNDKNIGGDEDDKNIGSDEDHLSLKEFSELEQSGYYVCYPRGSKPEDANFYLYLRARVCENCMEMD
# T1 sequence (P04234 22-105, stated change not applied, chain 2 of 2, further chain): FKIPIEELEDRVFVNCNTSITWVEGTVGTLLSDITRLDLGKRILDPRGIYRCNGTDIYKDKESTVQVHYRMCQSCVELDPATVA
# Run Description: SPR 37 C, antigen-capture format
# number only, unit min dropped from output

[
  {
    "Binder": "BSPSMA/CD3-1700 (bispecific antibody) chain 1: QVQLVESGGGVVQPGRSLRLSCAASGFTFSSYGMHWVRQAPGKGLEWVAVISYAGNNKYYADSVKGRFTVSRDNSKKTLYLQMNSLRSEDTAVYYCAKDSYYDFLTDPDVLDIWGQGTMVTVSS chain 2: EVQLVESGGGLVQPGRSLRLSCAASGFTFDDYSMHWVRQAPGKGLEWVSGISWNSGSKGYADSVKGRFTISRDNAKNSLYLQMNSLRAEDTALYYCAKYGSGYGKFYYYGMDVWGQGTTVTVSS chain 3: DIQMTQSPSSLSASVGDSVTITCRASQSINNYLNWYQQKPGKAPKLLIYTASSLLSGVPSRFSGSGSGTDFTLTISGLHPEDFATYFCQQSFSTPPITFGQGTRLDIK",
    "Measure Unit": "min",
    "T½": 3.8
  }
]

Continue with the binder presented below.
stdin: Tell me the measured T½ of BSPSMA/CD3-2100 (bispecific antibody) chain 1: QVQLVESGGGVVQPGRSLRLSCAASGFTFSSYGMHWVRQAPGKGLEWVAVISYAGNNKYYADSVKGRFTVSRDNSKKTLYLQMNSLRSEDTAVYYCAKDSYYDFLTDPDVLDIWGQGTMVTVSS chain 2: EVQLVESGGGLVQPGRSLRLSCAASGFTFDDYSMHWVRQAPGKGLEWVSGISWNSGSKGYADSVKGRFTISRDNAKNSLYLQMNSLRAEDTALYYCAKDGSGYGKFYYYGMDVWGQGTTVTVSS chain 3: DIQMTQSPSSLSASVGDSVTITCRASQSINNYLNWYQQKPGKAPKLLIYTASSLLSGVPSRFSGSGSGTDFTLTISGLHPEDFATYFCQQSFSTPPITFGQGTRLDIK , please.
stdout: 4.9

This collection of values is drawn from patent US20210253701A1.
